B1: PTPRD (parent)
chain: ELDELLKEISRKRRSIRYGREVEL

variants of: B1; experiment: protein stability index of a GFP-peptide fusion (GPS, HEK-293T) (PSI 1-6); higher = more stable; conditions: c terminus: a fixed tail appended;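 note: lentivirally expressed fusions sorted by FACS into six bins by GFP to DsRed ratio, PSI derived from sequencing read proportions per bin multiplied by bin number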
result type: protein stability index
Just the number, please, no unit after it.

Some solved entries appear below for comparison.
>  <mutant label>
D3P

>  <value measured>
2.26

$$$$
>  <mutant label>
D3M

>  <value measured>
1.65

$$$$
>  <mutant label>
S10P

>  <value measured>
3.01

$$$$

What does the data say about its protein stability index? Entry: S15D
1.91

What does the data say about its protein stability index? Entry: R11G
2.01

What does the data say about its protein stability index? Entry: R13F
2.06
